MBC: recorded values
test system: Streptococcus pyogenes; assay: Bactericidal activity against Streptococcus pyogenes clinical isolate after 18 to 24 hr; assay type: functional

COMPOUND	UNIT_ABBREVIATION	MBC
CC1(c2ccccc2)NNC(=O)CO1 (stereo not given)	µg/mL	50
CC1(c2ccc(O)cc2O)NNC(=O)CO1 (stereo not given)	µg/mL	100
CC1(c2cc(O)ccc2O)NNC(=O)CO1 (stereo not given)	µg/mL	100
CC1(c2ccc(O)cc2)NNC(=O)CO1 (stereo not given)	µg/mL	50
CC1(c2cccc(O)c2)NNC(=O)CO1 (stereo not given)	µg/mL	25

---

tested on: Staphylococcus aureus; assay: Antibacterial activity against methicillin-resistant Staphylococcus aureus assessed as growth inhibition after 24 hr by macro-dilution method; type: functional
MIC: recorded values

MOLECULE	MIC
CC1(c2ccc(O)cc2O)NNC(=O)CO1 (stereo not given)	50 µg/mL
CC1(c2cc(O)ccc2O)NNC(=O)CO1 (stereo not given)	50 µg/mL
CC1(c2cccc(O)c2)NNC(=O)CO1 (stereo not given)	12.5 µg/mL
CC1(c2ccc(O)cc2)NNC(=O)CO1 (stereo not given)	25 µg/mL
CC1(c2ccccc2)NNC(=O)CO1 (stereo not given)	25 µg/mL

---

tested on: Radical scavenging activity; assay: Antioxidant activity assessed as DPPH radical scavenging activity at 8 ug/mL after 30 min by spectrophotometric analysis relative to control; assay type: functional
# label = Criterion met if Activity < 50% else Criterion not met

COMPOUND	ASSIGNED_CLASS
O=C1O[C@H]([C@@H](O)CO)C(O)=C1O [ASCORBIC ACID]	Criterion not met
CC1(c2cc(O)ccc2O)NNC(=O)CO1 (stereo unspecified)	Criterion met
CC1(c2ccccc2)NNC(=O)CO1 (stereo unspecified)	Criterion met
CC1(c2cccc(O)c2)NNC(=O)CO1 (stereo unspecified)	Criterion not met
CC1(c2ccc(O)cc2O)NNC(=O)CO1 (stereo unspecified)	Criterion not met

---

MBC: recorded values
test system: Klebsiella pneumoniae; test: Bactericidal activity against Klebsiella pneumoniae clinical isolate after 18 to 24 hr; assay type: functional
PARAMETER: MBC (µg/mL)

COMPOUND	UNIT_ABBREVIATION	RECORDED_VALUE
CC1(c2cc(O)ccc2O)NNC(=O)CO1 (stereo not given)	µg/mL	100
CC1(c2ccc(O)cc2)NNC(=O)CO1 (stereo not given)	µg/mL	50
CC1(c2cccc(O)c2)NNC(=O)CO1 (stereo not given)	µg/mL	25
CC1(c2ccc(O)cc2O)NNC(=O)CO1 (stereo not given)	µg/mL	100
CC1(c2ccccc2)NNC(=O)CO1 (stereo not given)	µg/mL	100

---

tested on: Pseudomonas aeruginosa; test: Bactericidal activity against Pseudomonas aeruginosa ATCC 9029 after 18 to 24 hr; type: functional
PARAMETER: MBC (µg/mL)

COMPOUND	PARAMETER	UNIT_ABBREVIATION	INEQUALITY_SYMBOL	RECORDED_VALUE
CC1(c2cc(O)ccc2O)NNC(=O)CO1 (stereo not given)	MBC	µg/mL	=	100
CC1(c2cccc(O)c2)NNC(=O)CO1 (stereo not given)	MBC	µg/mL	=	25
CC1(c2ccc(O)cc2O)NNC(=O)CO1 (stereo not given)	MBC	µg/mL	>	100
CC1(c2ccccc2)NNC(=O)CO1 (stereo not given)	MBC	µg/mL	=	100
CC1(c2ccc(O)cc2)NNC(=O)CO1 (stereo not given)	MBC	µg/mL	=	100
